Procedure details: chemical genetic growth profiling, strain panel (AID 1159580);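 also: tested at 20 µM; growth read once vehicle control cultures reached saturation at 30 °C; lower values mean less growth of the strain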
Condition details: S. cerevisiae deletion strains, growth OD, locus YDL101C, strain DUN1
The whole screen tested about 5,500 compounds, of which about 2,000 (36%) were called active. Roughly 18% stayed inconclusive and do not appear here. Rule as the data show it: active = normalized growth mostly below about 0.91 (no sharp cut-off); inconclusive = no clear call, values can overlap the other calls; inactive = mostly above about 0.92. Some of the results follow.
// allowed return values: true = active, false = inactive

- Compound: "O=C1OC2COC(=O)C2C=C1NC(=O)c1ccc(Cl)cc1 (stereo not drawn)"
  Cat: "true"

QUERY: Assay result, entry CCCC(C)C1(CC)C(=O)N=C(S)NC1=O (stereo not drawn) — outcome?
RESULT: false

QUERY: Would you mind doing O=C(O)CCCCC1CCSS1 (stereo not drawn) as well?
RESULT: false
